Parameter MIC K. pneumoniae ATCC 700603: see the listing below.
tested on: K. pneumoniae ATCC 700603; experiment: microbe, parasite or virus in culture; conditions: ATCC 700603, 18 h
Where a SMILES comes first, the peptide text is derived from it. Bridges are numbered along the chain shown (N, C = ends). [ ]: non-standard residue; d: D form. The star is where a group is joined. dDab = NCC[C@@H](N)C(=O)O; hSer = N[C@@H](CCO)C(=O)O; Octanoyl = CCCCCCCC(=O)*; Orn = NCCC[C@H](N)C(=O)O; Dab = NCC[C@H](N)C(=O)O
Form entry: value (µg/mL) — number only.

compound: CCCCCCCC(=O)N[C@@H](CCO)C(=O)N[C@H](CCN)C(=O)N[C@H]1CCNC(=O)[C@H]([C@@H](C)O)NC(=O)[C@H](CCN)NC(=O)[C@H](CCN)NC(=O)[C@H](CC(C)C)NC(=O)[C@@H](Cc2ccccc2)NC(=O)[C@H](CCN)NC1=O [Compound 31] (Octanoyl-[hSer][dDab][Dab][Dab][dF]L[Dab][Dab]T; lactam 3-C)
measurement.unit: µg/mL
MIC K. pneumoniae ATCC 700603: 8

Now let's try a different one.
Req: Name the recorded MIC K. pneumoniae ATCC 700603 for CCCCCCCC(=O)N[C@H](C(=O)N[C@@H](CCN)C(=O)N[C@H]1CCCNC(=O)[C@H]([C@@H](C)O)NC(=O)[C@H](CCN)NC(=O)[C@H](CCN)NC(=O)[C@H](CC(C)C)NC(=O)[C@@H](Cc2ccccc2)NC(=O)[C@H](CCN)NC1=O)[C@@H](C)O [Compound 17] (Octanoyl-T[Dab][Orn][Dab][dF]L[Dab][Dab]T; lactam 3-C) .
Resp: 16
